Target: HLA-A*29:02
Experiment: IEDB peptide-MHC binding, purified MHC/direct/fluorescence; filed as Kd, often an IC50 or EC50 that approximates it; bounds were set here for any values at or beyond the usual limits of such assays
Condition description: source organism: Entamoeba histolytica HM-1:IMSS
pKd: −log10 of the molar value.
Assay metric: pKd

GET /value?item= ETMKPAAMV &field=pKd returns ≤ 4.70

###

Target: HLA-B*35:01
Experiment: IEDB peptide-MHC binding, purified MHC/competitive/radioactivity; filed as Kd, often an IC50 or EC50 that approximates it; bounds were set here for any values at or beyond the usual limits of such assays
Condition description: source organism: Dengue virus 4 Dominica/814669/1981
Assay metric: pKd
Hey, just a heads up that pKd is the negative log base 10 of the concentration in molar.

// field: pKd; key: LPLPWTAGAD ; value = 5.09

###

Below, each entry is listed with its recorded Kd.
Target: HLA-B*40:02
Experiment: IEDB peptide-MHC binding, purified MHC/competitive/radioactivity; filed as Kd, often an IC50 or EC50 that approximates it; bounds were set here for any values at or beyond the usual limits of such assays
Condition description: source organism: SARS coronavirus Tor2
Write it as a number; the unit nM goes unstated.

Record summary for HEGHQTAAF : reported Kd = 2810

Sure, the documented Kd for SEAREHLKNG is 6590

Item: KEQYCALSPG | Kd: 831

###

Target: HLA-A*11:01
Experiment: IEDB peptide-MHC binding, purified MHC/competitive/radioactivity; filed as Kd, often an IC50 or EC50 that approximates it; bounds were set here for any values at or beyond the usual limits of such assays
Condition description: source organism: Vaccinia virus WR
Property: pKd; scope: individual sequences
Hey, just a heads up that pKd is the negative log base 10 of the concentration in molar.

Sample records with pKd:
- Construct sequence: "IMEIVSHLR"
  Assay metric: "pKd"
  Reported value: 6.66
- Construct sequence: "IMSIGFEAR"
  Assay metric: "pKd"
  Reported value: 5.50
- Construct sequence: "YLRLYIILAR"
  Assay metric: "pKd"
  Reported value: 5.83
- Construct sequence: "NVPERQLILR"
  Assay metric: "pKd"
  Reported value: 6.49
- Construct sequence: "NVQFVDINR"
  Assay metric: "pKd"
  Reported value: 6.71

Form field pKd, entry KLDNHDILTY : 6.22

# pKd (sequence: VLFSIFYKDY ) is 6.01

###

Target: HLA-A*24:02
Experiment: IEDB peptide-MHC binding, purified MHC/competitive/fluorescence; filed as Kd, often an IC50 or EC50 that approximates it; bounds were set here for any values at or beyond the usual limits of such assays
Condition description: source organism: Influenza A virus H3N2
Assay metric: Kd (nM)
Give just the numeric value; nM need not be written.

Kindly note the recorded Kd for LYNKMEFEPF , which is 3.3

###

Target: HLA-A*03:01
Experiment: IEDB peptide-MHC binding, purified MHC/competitive/fluorescence; filed as Kd, often an IC50 or EC50 that approximates it; bounds were set here for any values at or beyond the usual limits of such assays
Condition description: source organism: Entamoeba histolytica
Assay metric: Kd

Reported Kd ( RASHFRKLF ) = ≥ 20 µM

###

Target: HLA-A*11:01
Experiment: IEDB peptide-MHC binding, purified MHC/direct/fluorescence; filed as Kd, often an IC50 or EC50 that approximates it; bounds were set here for any values at or beyond the usual limits of such assays
Condition description: source organism: Escherichia coli
Assay metric: Kd (µM)
Quick reminder: number only, in µM, skip the unit.

For record TTFPVNGGY the listed Kd is 5.77
